Parameter relative affinity: see the listing below.
Target: T1, HLA-DR13 (HLA-DRB1*13:01) (human)
T1 construct: mature; purified from homozygous EBV-transformed lymphoblastoid cells with antibody L243
Test: competition ELISA vs biotin-B1 21-36
No end group written: not given here.
Observed Property: relative affinity

{"Binder": "ESLLPVMQHLAKNVV-NH2 [CCNB1 374-388]", "Assay Value": 6}
{"Binder": "MALRVTRNSKINAEN-NH2 [CCNB1 1-15]", "Assay Value": 58}
{"Binder": "LHFLRRASKIGEVDV-NH2 [CCNB1 303-317]", "Assay Value": 1}
{"Binder": "AKISTLPQLNSALVQ-NH2 [CCNB1 410-424]", "Assay Value": 94}
{"Binder": "LPVMQHLAKNVVMVN-NH2 [CCNB1 377-391]", "Assay Value": 2}
{"Binder": "NSALVQDLAKAVAKV-NH2 [CCNB1 419-433]", "Assay Value": 37}
{"Binder": "VDVEQHTLAKYLMEL-NH2 [CCNB1 315-329]", "Assay Value": 211}
{"Binder": "AKINMAGAKRVPTAP-NH2 [CCNB1 17-31]", "Assay Value": 21}
{"Binder": "MEMKILRALNFGLGR-NH2 [CCNB1 285-299]", "Assay Value": 1}
